System: NCI-H460 tumor-bearing mice (lung cancer)
Assay: Biodistribution: lutetium accumulation in tumor, plasma and healthy tissues by ICP-MS
Type: in vivo
Conditions: second table; plasma; 24 h
Here, each record is paired with measured Plasma, % ID/g 24 h data.

Compound	Test system	Plasma, % ID/g 24 h (% ID/g)
CCNC(=O)c1nnc(-c2cc(C(C)C)c(O)cc2O)n1-c1ccc(CC2CCN(C(=O)CCOCCOCCOCCOCCNC(=O)CN3CCN4CCN5CCN(CC3)CC(=O)[O][Lu]([O]C(=O)C4)[O]C(=O)C5)CC2)cc1 [CMP31]	NCI-H460 tumor-bearing mice (lung cancer)	0.81
CCNC(=O)c1nnc(-c2cc(C(C)C)c(O)cc2O)n1-c1ccc(OC2CCN(C(=O)CCNC(=O)[C@@H](CCC(=O)N3CCC(Oc4ccc(-n5c(C(=O)NCC)nnc5-c5cc(C(C)C)c(O)cc5O)cc4)CC3)NC(=O)CCOCCOCCOCCOCCNC(=O)CN3CCN4CCN5CCN(CC3)CC(=O)[O][Lu]([O]C(=O)C4)[O]C(=O)C5)CC2)cc1 [CMP35]	NCI-H460 tumor-bearing mice (lung cancer)	2.212
